Value source: PubChem BioAssay AID2314

- assay.notes: Cycloheximide Counterscreen for Small Molecule Inhibitors of Shiga Toxin; further: read at 38.3 µM for the half of the compounds with a filed dose; 0% is about no effect
- condition.set: cell reporter, cycloheximide protein synthesis inhibition counterscreen; hits give high values
Out of some 300,000 compounds screened, about 37,000 (12%) were called active. For the sample, actives were picked, then their nearest neighbours and some compounds at random.
observable: max response (%)
One number for each entry, in %.

Some solved cases for reference:
molecule | observable | observed.value
CCN(CC)c1ccc(C(=O)N/N=C/c2ccc(N3CCOCC3)cc2)cc1 | max response | -3.32
O=C(C1CCCN(S(=O)(=O)c2ccccc2)C1)N1CCN(c2ccc(F)cc2)CC1 (configuration not stated) | max response | 8

Each molecule below has a reported value. Please supply its max response.
1. O=C(NCc1nnc(SCC(=O)N2CCCCCC2)o1)c1ccc(F)cc1
2. Cc1nc(N2CCN(c3ccccn3)CC2)c2c(C)c(C(=O)Nc3ccc(F)c(Cl)c3)sc2n1
3. CN(C)c1ccc(/C=N/Nc2cc(N3CCOCC3)nc(N3CCOCC3)n2)cc1
4. CN(CC(=O)NCCN1CCOCC1)S(=O)(=O)c1ccc(F)cc1
5. CCc1nn(CC(=O)N2CCN(c3cc(C)ccc3C)CC2)c(=O)c2cc3occc3n12
6. CC(NC(=O)c1ccco1)c1ccc2c(c1)OCO2 (configuration not stated)

1: -0.334; 2: -3.16; 3: -1.93; 4: -1.49; 5: -8.63; 6: -2.24

Provide reported max response for each item, in the same order as listed.
1. COc1ccc(NS(=O)(=O)c2ccc(N3CCOCC3)c(NC(=O)c3ccccc3Br)c2)cc1
2. COC(=O)c1ccccc1SC1CC(=O)N(c2cccc(C)c2)C1=O (configuration not stated)
3. Cc1cccc(N2C(=O)SC(SC(=Nc3ccccc3)Nc3ccccc3)C2=O)c1 (configuration not stated)
4. O=C(N/N=C\c1cccc(Br)c1)c1ccccc1-n1cccc1
5. Cc1cc(Nc2ccc(N3CCOCC3)cc2)c2cccc(C)c2n1
6. Cc1cccc(N2C(=O)CC(SC(N)=Nc3ccccc3)C2=O)c1 (configuration not stated)
7. CCCSc1nc(NCc2ccco2)c2c3c(sc2n1)COC(C)(CC)C3 (configuration not stated)

1: -1.16; 2: -2.47; 3: 50; 4: 1.75; 5: -1.97; 6: 6.82; 7: 24.2

Please give max response for each item listed below.
1. Cc1cc(C(=O)N/N=C/c2ccc(N3CCOCC3)cc2)c(C)o1
2. O=C(NCc1ccncc1)C(=O)NCC1OCCN1S(=O)(=O)c1ccc(Br)cc1 (configuration not stated)
3. Cc1c(C(=O)OC(C)C)sc(NC(=O)c2cccnc2)c1C#N
4. Cc1ccc(-c2cc(C(=O)N/N=C/C=C/c3ccccc3)n[nH]2)o1
5. Cc1ccccc1CN1CCNC(=O)C1CC(=O)NCCC1=CCCCC1 (configuration not stated)

26.5
-5.83
1.72
-1.74
-4.14

Batch lookup, max response per entry.
1. Cc1nnc(SC(C)C(=O)Nc2ccc(S(=O)(=O)NC3CCCCC3)cc2)s1 (configuration not stated)
2. Fc1ccc(-c2ccc(NCCN3CCOCC3)nn2)cc1

-4.95
34.4
